# target: human glypican-3 (GPC3) (human, UniProt P51654 25-554); further: test concentration or dose not given here
# assayNotes: cell-based or functional assay
measurementKind: JHH-5 Internalization (MFI), Day 0 in mouse plasma
Note: unit MFI is implicit; provide only the numeric part.

Worked cases, JHH-5 Internalization (MFI), Day 0 in mouse plasma given:
Documented JHH-5 Internalization (MFI), Day 0 in mouse plasma of H18L6_LC_G34A mAb, v40212 (antibody, human IgG1, kappa, V domains shown, M3-H18L6 chains with the stated light chain point mutation, IgG1/kappa) VH: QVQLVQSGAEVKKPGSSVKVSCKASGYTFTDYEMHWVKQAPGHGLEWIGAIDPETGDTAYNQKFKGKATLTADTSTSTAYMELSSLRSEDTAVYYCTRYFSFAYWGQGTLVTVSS VL: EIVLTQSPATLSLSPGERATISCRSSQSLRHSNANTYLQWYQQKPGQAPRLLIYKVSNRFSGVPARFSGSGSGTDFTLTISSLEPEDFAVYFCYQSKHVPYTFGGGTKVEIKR : 10200

Documented JHH-5 Internalization (MFI), Day 0 in mouse plasma of H18L6_LC_G34D mAb, v40203 (antibody, human IgG1, kappa, V domains shown) VH: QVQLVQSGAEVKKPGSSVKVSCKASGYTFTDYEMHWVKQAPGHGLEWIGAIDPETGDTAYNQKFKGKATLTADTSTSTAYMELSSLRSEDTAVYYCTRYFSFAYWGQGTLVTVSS VL: EIVLTQSPATLSLSPGERATISCRSSQSLRHSNDNTYLQWYQQKPGQAPRLLIYKVSNRFSGVPARFSGSGSGTDFTLTISSLEPEDFAVYFCYQSKHVPYTFGGGTKVEIKR : 8690

# context switch: different binder, same JHH-5 Internalization (MFI), Day 0 in mouse plasma
Documented JHH-5 Internalization (MFI), Day 0 in mouse plasma of H18L6_LC_G34E mAb, v40204 (antibody, human IgG1, kappa, V domains shown, M3-H18L6 chains with the stated light chain point mutation, IgG1/kappa) VH: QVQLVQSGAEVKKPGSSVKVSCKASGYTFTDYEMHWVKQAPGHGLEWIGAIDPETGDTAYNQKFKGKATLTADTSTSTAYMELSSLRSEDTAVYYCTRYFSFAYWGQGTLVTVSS VL: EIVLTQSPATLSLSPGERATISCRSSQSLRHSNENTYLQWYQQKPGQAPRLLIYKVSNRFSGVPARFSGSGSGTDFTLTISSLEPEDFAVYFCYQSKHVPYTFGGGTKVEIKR : 7100
